Molecular target: Fuc(b1-3)GlcNAc
Assay: glycan array binding signal (z-score within array); higher = stronger binding
Conditions: glycan notation: IUPAC condensed, linker removed
Shown is part of a subset that was picked to be rich in the strongest signals.
measure.name: glycan array binding signal (z-score)

- VLRB.aGPA.23-GCN4-biotin (Petromyzon marinus) (protein) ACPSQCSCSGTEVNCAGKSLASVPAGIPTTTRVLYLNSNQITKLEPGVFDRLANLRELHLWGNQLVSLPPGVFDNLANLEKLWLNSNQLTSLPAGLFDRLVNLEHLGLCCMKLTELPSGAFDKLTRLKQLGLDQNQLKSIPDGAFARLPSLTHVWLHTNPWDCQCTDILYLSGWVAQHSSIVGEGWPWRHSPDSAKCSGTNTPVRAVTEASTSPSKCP: -0.075
